Tested on: K4 kissing-loop RNA reporter
TEST_DETAILS: apparent KD of K4 kissing-loop reporter; higher = weaker reporter binding
CONDITION: Eterna round: R107; input ligand: FMN 200 uM
ENDPOINT_NAME: apparent KD of K4 kissing-loop reporter (nM)
Number in nM, nothing else.

Note down apparent KD of K4 kissing-loop reporter recorded for AAUCAAUACAGAAGGAGCGUGACAUUUGCUAUUGUAAUUUUAGCUAGUGAUGUUAGCAUUUCACAGGUAGGUCGCUGUACAUUUA [JR_SSArginiB_Sub010]
275

Note down apparent KD of K4 kissing-loop reporter recorded for AAACAUCACUGGGAGUGAUGUUCUCAGUGACGAGGACCGGUACGGCCGCCACUCGCGAGAGAUAUAAUUAAGUAAUGACAUCAUU [Excl Tryptophan A V6]
260

Note down apparent KD of K4 kissing-loop reporter recorded for GGGAUGUAGGGAAGGAGCGCUUUGCGAAUAUUAAUGAGUGAUGUUCGUAGAUAUUUGUAAUGGCAGGUAGGUCGCCCUAUAUCCC [Skye_SS_AB]
197

Note down apparent KD of K4 kissing-loop reporter recorded for UGACAUUGCUCAGAUACCAGUCAUGAGGAUCACCCAUGGGCCAAACGUACAAUAAUAAAUGACCCUUGGCAGCUGAGCAAUGUCU [TheoBX 14]
64.5

Note down apparent KD of K4 kissing-loop reporter recorded for UUAGGAGUGGAAGGAUAUCCUGGUGUGGGUGAUGUUAGUGAUGUUGGAGGUGCAGUGAUGUUGCGCGGAGAAGGUCCGGUGUUGA [BDazzled - #5 - Exc. FMN B]
280

Note down apparent KD of K4 kissing-loop reporter recorded for CCUAUCUCAUACGAUACCAGUCAACGAGUGAUGUUCGAAUAAAUAAAUUUGCCAUAUAAUGACCCUUGGCAGCGUAUGGGAUAGG [Ex Theophylline B K4 14]
352

---

Kindly supply the reported apparent KD of K4 kissing-loop reporter values for the records listed here.
Test system: K4 kissing-loop RNA reporter;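 also: bound reporter read as fluorescence of individual clusters on recovered sequencing chips by microscopy, with normalized cluster intensities fitted with a binding model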
TEST_DETAILS: apparent KD of K4 kissing-loop reporter; higher = weaker reporter binding
CONDITION: Eterna round: R107; input ligand: theophylline 20 uM
Number in µM, nothing else.

Note down apparent KD of K4 kissing-loop reporter recorded for AAGGUCACUGCUACAGUGAUGUUGUGGGAGCAGGAUAUGCUGAAAAGCAGAAGGGCUCGCUCCAGGUGACCGAAUGAAACAUUCA [whbob_SS_FMNA__2th176]
0.792

Note down apparent KD of K4 kissing-loop reporter recorded for CUGAGCUGCAGCGAUACCAGUGUGGAGUGAUGUUCCCUGGUCCGGGCUGUUGUUCCCUUGCGCCCUUGGCAGCGCAGGAGCAGGG [Exclusion Theophylline B GF 15]
0.378

Note down apparent KD of K4 kissing-loop reporter recorded for AACUGUUGGGAAGGAUAUUAUGGUGGCUAAAUCCAGUGAUGUUGGAAAUCGGUACUCGCCCACCUUUAAGAAGGUCCGUGAAAGA [theeternabot_sameState_KL_FMN_B_6]
0.199

Note down apparent KD of K4 kissing-loop reporter recorded for GGGAUGUAGGGAAGGAGCGCUUUGCGAAUAUUAAUGAGUGAUGUUCGUAGAUAUUUGUAAUGGCAGGUAGGUCGCCCUAUAUCCC [Skye_SS_AB]
0.151

Note down apparent KD of K4 kissing-loop reporter recorded for AAUGAGGACACUUGCAACAGUCCUCGAAUACGAGGACCGGUACGGCCGCCACUCGAUAACUUGCAGUGAUGUUGCAAGUAAGAAU [(T)''-(K)'-(T)'-(T1)-(T2)-(K1)-(K2)_Design2]
0.258

Note down apparent KD of K4 kissing-loop reporter recorded for UGACUACAGGAAUAAUAAUCCUAGUGAUGUUAGGAUAUGCUGAUAAGCAGAAGGAACUGAGAUCGAAAGAUCUCAAAAGUAGUCU [FmnAX 28 Mat Inspired #SwitchBubble #StaticStem #K4Early]
0.106

Note down apparent KD of K4 kissing-loop reporter recorded for ACGUGCACCAGUGAUGUUGGAAAAUAUGAAGGAGCGGGAGAAAACCCAGGUAGGUCGCAUAAUAGCACGAGCCACGAAAGUGGCA
0.196

Note down apparent KD of K4 kissing-loop reporter recorded for UCCUAGGCUCGAAAGAGCCUAGGAUUGACUCAGGAUAUCCGGAAACGGAGAAGGGAGUCACUAGUGAUGUUAGGGAUUCCCUAUU
0.0859

Note down apparent KD of K4 kissing-loop reporter recorded for AGUGUGCAAAAGCACACUCAGAACAAGGACAAGGAUAUCUACUAAUAGAGAAGGUGUCCUUUCCUUAGUGAUGUUAAGGAUCUGA [Omei KL FMN A SS D v4]
0.486

Note down apparent KD of K4 kissing-loop reporter recorded for AAAAUAAAGGAGUGAUGUUCCAUAUGUGAUACCAGCCACGAAAGUGGCCCUUGGCAGCACUGCCAAGUGGACGAAAACGUCCACA [#OpenEnded 5 #StaticStem #K4Early]
0.16

Note down apparent KD of K4 kissing-loop reporter recorded for AAUUUAUGAUCUGAUACCAGACUUUAUCUUGUUUAUAAGUCAAGUGAUGUUUGACUAUUAGUCCCUUGGCAGCAGUAUUGUUUAA [#17 K4 Theophylline B Same State]
0.208

Note down apparent KD of K4 kissing-loop reporter recorded for UUCUAAAUGUCUGAUACCAGAGAAAAUAUAUGUAGUGAUGUUAUAUACAAAUUUAAUAAGCUCCCUUGGCAGCAGUAUGAAUUUU [AstrosExc-TheB#13]
0.755

Note down apparent KD of K4 kissing-loop reporter recorded for AUUUUGGUUUAGAGUGAUGUUCCUUGUAUUCGAGGACCGGUACGGCCGCCACUCGAAUAGAAAAGAAAAGAAAUGUGUGAUGUUU [BDazzled - #5 SS Tryptophan A]
0.764

Note down apparent KD of K4 kissing-loop reporter recorded for UCUGCUGUAUAUGAUACCAGCAGUGAGAGACCAGAAGUAUAGUGAUGUUAUAUGAGAGAAUGCCCUUGGCAGCGUGUGCGGGUGG [SSTheophylB.Z]
0.0847

Note down apparent KD of K4 kissing-loop reporter recorded for AAGCCGGUUGCGGCCGCCACUUUUGCGGACCCGGUGCAGUGAUGUUGCGCAUCGCGGGUUGCUUAAAGGACCGGGCACCUCUAAC [theeternabot_sameState_KL_Trp_B_7]
0.363

Note down apparent KD of K4 kissing-loop reporter recorded for UUACUACCCAGUGAUGUUGGGUAGCGGCCACGAGGACCGGUACGGCCGCCACUCGAGGUUCGGGAGUGAUGUUCCUACUAUUUGG [Same state Tryptophan A GF 6]
0.402

Note down apparent KD of K4 kissing-loop reporter recorded for UGGAGUUGACGAAAAGUCAACUCCCGAGAAGGAGCGGACGAAAGUCCAGGUAGGUCGCUCACUACCAGUGAUGUUGGUACUUAAA
0.213

Note down apparent KD of K4 kissing-loop reporter recorded for UACAUAUCACUUUUUCUACAAUUAUUUAGUCAGGAUAUCGAUUAAACGAGAAGGGACAUUAUCAAGUGAUGUUUGAUAAUUCAAA [JR_Nu_SSFMNA_Sub028]
0.159

Note down apparent KD of K4 kissing-loop reporter recorded for GGACGACAGGCGGCCGCCACUCACAGCAGCCAGCGAGUGAUGUUCGUAGCGGAGUGAUGUUCCGAGAGGACCGGGUCUGCAGUCC [Same State Tryptophan B GF 17]
0.168

Note down apparent KD of K4 kissing-loop reporter recorded for UCGAAAUGCGUCUCCUAGUUUCUCCGGGAAGGAGCGUGGAUAACCGCAGGUAGGUCGCCCGGGAGCCGGACCAGUGAUGUUGGUC [Exclusion Arginine A Gf 30]
0.207

Note down apparent KD of K4 kissing-loop reporter recorded for UCCCGAGUGAUGUUUGGCUGAUGGAGUGAUACCAGUCCCUAGACUGACCCUUGGCAGCACGACUUGUACCAGGCGGAUCACCCUG [theeternabot_exclusion_KL_Theo_A_5]
0.431

Note down apparent KD of K4 kissing-loop reporter recorded for UGACUGGACUGAAGGAGCGGGCGAGACAAAGUCUCGAACUCCUAGUGAUGUUAGGAAAUAACCCAGGUAGGUCGCAGUCUAGUCU [ArgBS 7 #SwitchBubble #StaticStem #DoubleMagnet]
0.136

Reference for the values: the supplement of paper PMC9170038
